Each item that follows carries a reported normalized growth.
# run description: chemical genetic growth profiling, strain panel (AID 1159580);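 note: tested at 20 µM; growth read once vehicle control cultures reached saturation at 30 °C; 1 = growth at the plate median or of vehicle wells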
# measurement context: S. cerevisiae deletion strains, growth OD, locus YLR330W, strain CHS5, stronger effect = lower value
The campaign covered roughly 5,500 compounds. About 2,000 (36%) were called active. About 18% were inconclusive and are not listed. Some of the results follow.
// keep it numeric: no unit symbol after the value

Before answering, review these 2 worked examples.
>  <compound>
Nc1c2ccccc2nc2ccccc12 (tested in a mixture with another compound)

>  <normalized growth>
0.826

$$$$
>  <compound>
CC1=CCC2C3(C)C1=CC(=O)OC3CC1C(C)(C)CC(O)C(O)C12C (stereo not drawn)

>  <normalized growth>
1.01

$$$$

Prompt: For the compound CC(=O)/C=C\[C@@H]1[C@@]2(C)CCCC(C)(C)C2CC[C@@]1(C)O (stereo partly drawn) , what normalized growth is on record?
Completion: 0.974

====

Entries and their measured normalized growth follow.
# run description: chemical genetic growth profiling, strain panel (AID 1159580)
# measurement context: S. cerevisiae deletion strains, growth OD, locus YAL030W, strain snc1, stronger effect = lower value
Among all 5,500 compounds or so, about 2,000 (36%) were called active. Another 18% or so got no clear call; they are omitted. The list shows a part of the results.
No unit in the answer, only the number.

>  <compound>
CC(C)(Oc1ccc(CCNC(=O)c2ccc(Cl)cc2)cc1)C(=O)O

>  <normalized growth>
0.996

$$$$
>  <compound>
COc1cc(C(=O)O[C@H]2CC[C@@]3(C)[C@@H]4CC[C@H]5[C@]6(O)C[C@H](O)[C@@]7(O)[C@@H](CN8C[C@@H](C)CC[C@H]8[C@@]7(C)O)[C@]6(O)C[C@@]53O[C@]24O)cc(OC)c1OC

>  <normalized growth>
0.996

$$$$

Prompt: Entry under review: O=C(CNC(=O)c1ccc(Cl)cc1)NO . Reported normalized growth?
Completion: 1.01

Prompt: For the compound shown here, Nc1ccccc1C(=O)CC(N)C(=O)O (centres undefined) , give the reported normalized growth.
Completion: 0.992

Prompt: Record request: normalized growth value, item CO[C@@]12[C@@H]3NC3CN1C1=C(C(=O)C(N)=C(C)C1=O)[C@@H]2COC(N)=O (some centres undefined)
Completion: 0.989

Prompt: // normalized growth lookup, key: C#C[C@]1(O)CCC2C3CCC4=CC(=O)CC[C@@H]4C3CC[C@@]21C (some centres undefined)
Completion: 0.987

====

// normalized growth lookup, one value per entry
# run description: chemical genetic growth profiling, strain panel (AID 1159580)
# measurement context: S. cerevisiae deletion strains, growth OD, locus YMR307W, strain GAS1, stronger effect = lower value
Out of some 5,500 compounds screened, about 2,000 (36%) were called active. Not shown: some 18% with an inconclusive outcome. Some of the results follow.
Please state the value as a number alone, without comment.

Observe how each entry below is paired with its result.
>  <structure>
Cc1cc(O)cc(=O)o1

>  <normalized growth>
1.01

$$$$
>  <structure>
Cc1cn([C@H]2C[C@H](N=[N+]=[N-])[C@@H](CO)O2)c(=O)[nH]c1=O

>  <normalized growth>
1.02

$$$$
>  <structure>
CC(C)(C=O)Cc1cc(C(C)(C)C)c(O)c(C(C)(C)C)c1

>  <normalized growth>
1.02

$$$$

Next item in the queue.
Prompt: Which normalized growth is reported for this compound? CCN1CCC[C@H]1CNC(=O)c1cc(S(N)(=O)=O)ccc1OC
Completion: 0.997

====

# run description: chemical genetic growth profiling, strain panel (AID 1159580)
# measurement context: S. cerevisiae deletion strains, growth OD, locus YGL173C, strain kem1, stronger effect = lower value
The campaign covered roughly 5,500 compounds. About 2,000 (36%) were called active. Roughly 18% stayed inconclusive and do not appear here. This is one part of the list.
property label: normalized growth
// no unit string in output, number only

Worked examples follow.
>  <molecule>
CC(CC(=O)C1OC1(C)C)C1C(=O)CC2(C)C3=CCC4C(C)(C)C(OC5OCC(O)C(O)C5O)CCC45CC35C(O)CC12C (centres undefined)

>  <normalized growth>
1.02

$$$$
>  <molecule>
CCCOc1ccccc1-c1nc2n[nH]nc2c(=O)[nH]1

>  <normalized growth>
1.01

$$$$
>  <molecule>
Cc1cc(O)cc(C)c1Cl

>  <normalized growth>
0.927

$$$$

Attention now shifts to the item below.
Prompt: Recorded normalized growth of C[C@@H]1CC[C@]2(C(=O)O)CC[C@]3(C)C(=CCC4[C@@]5(C)CC[C@H](O)C(C)(C)C5CC[C@]43C)C2[C@H]1C (some centres undefined) , please.
Completion: 1.01

====

normalized growth: recorded values
# run description: chemical genetic growth profiling, strain panel (AID 1159580);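 note: tested at 20 µM; growth read once vehicle control cultures reached saturation at 30 °C; 1 = growth at the plate median or of vehicle wells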
# measurement context: S. cerevisiae deletion strains, growth OD, locus YCL069W, strain vba3, stronger effect = lower value
Hit rate of the full screen: of about 5,500 compounds, about 2,000 (36%) were called active. About 18% were inconclusive and are not listed. The list shows a part of the results.
Give the figure by itself; no unit, no explanation.

>  <compound>
COc1ccc2[nH]cc(CCN)c2c1

>  <normalized growth>
0.992

$$$$

Prompt: Find the recorded normalized growth belonging to N=C(N)c1ccc(OCCCCCOc2ccc(C(=N)N)cc2)cc1 and report it.
Completion: 0.963

Prompt: Record request: normalized growth value, item CC(C)(Oc1ccc(CCNC(=O)c2ccc(Cl)cc2)cc1)C(=O)O
Completion: 0.988

Prompt: I am curious: what normalized growth value has been reported for Cc1cc(C(C)(C)C)c(O)c(C(C)(C)C)c1 ?
Completion: 0.99

Prompt: Need normalized growth of Cc1cc(-n2c(=O)[nH]c(=O)n(C)c2=O)ccc1Oc1ccc(SC(F)(F)F)cc1 , thanks.
Completion: 0.978

Prompt: Entry COc1cc(N)c(Cl)cc1C(=O)NC1CCN(Cc2ccccc2)CC1 has what normalized growth?
Completion: 0.993

Prompt: What value of normalized growth has been recorded for this entry: C/C=C(/C)C(=O)OC1CCC2(C)C3CCC4C5(O)CC(O)C6(O)C(CN7CC(C)CCC7C6(C)O)C5(O)CC42OC13O (stereo not drawn)
Completion: 0.971

Prompt: I'd like to know its normalized growth. The compound in question is O=C1c2c(O)cccc2Cc2cccc(O)c21
Completion: 1.01

====

As shown below, each of these compounds has a reported normalized growth value.
# run description: chemical genetic growth profiling, strain panel (AID 1159580);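 note: tested at 20 µM; growth read once vehicle control cultures reached saturation at 30 °C; 1 = growth at the plate median or of vehicle wells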
# measurement context: S. cerevisiae deletion strains, growth OD, locus YER015W, strain faa2, stronger effect = lower value
Among all 5,500 compounds or so, about 2,000 (36%) were called active. About 18% were inconclusive and are not listed. The list shows a part of the results.
Hey, just send me the number, nothing else.

Examples from the recorded data:
>  <compound>
Cc1cc(O)cc(O)c1C(=O)O

>  <normalized growth>
1.01

$$$$
>  <compound>
CC1(C)CC[C@]2(C)CC[C@]3(C)C(=CCC4[C@@]5(C)CC[C@H](O)C(C)(C)C5CC[C@]43C)C2C1 (stereo partly drawn)

>  <normalized growth>
0.988

$$$$
>  <compound>
CC(C)(Oc1ccc(CCNC(=O)c2ccc(Cl)cc2)cc1)C(=O)O

>  <normalized growth>
0.995

$$$$
>  <compound>
NC(Cc1c[nH]c2ccccc12)C(=O)O (stereo not drawn)

>  <normalized growth>
1.02

$$$$

Prompt: So what does the record say about normalized growth for CC(C)CC(N(C)C)C1(c2ccc(Cl)cc2)CCC1 (stereo not drawn) ?
Completion: 0.982

Prompt: Item O=C(CNC(=O)c1ccc(Cl)cc1)NO has what recorded normalized growth?
Completion: 1.01

Prompt: Tell me the measured normalized growth of O=c1ccc2ccc(O)cc2o1 , please.
Completion: 1.01

Prompt: What value of normalized growth has been reported for the following compound? N#CC(O[C@@H]1O[C@H](CO[C@@H]2O[C@H](CO)[C@@H](O)[C@H](O)[C@H]2O)[C@@H](O)[C@H](O)[C@H]1O)c1ccccc1 (stereo partly drawn)
Completion: 0.987

Prompt: Name the reported normalized growth value associated with the compound Nc1c2ccccc2nc2ccccc12 (tested in a mixture with another compound)
Completion: 0.821

====

# run description: chemical genetic growth profiling, strain panel (AID 1159580);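 note: tested at 20 µM; growth read once vehicle control cultures reached saturation at 30 °C; 1 = growth at the plate median or of vehicle wells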
# measurement context: S. cerevisiae deletion strains, growth OD, locus YPL106C, strain sse1, stronger effect = lower value
The whole screen tested about 5,500 compounds, of which about 2,000 (36%) were called active. Roughly 18% stayed inconclusive and do not appear here. The list shows a part of the results.
Under this convention, yes (1) denotes normalized growth strictly below 1 and no (0) denotes normalized growth at or above 1.

Prompt: In the record for O=c1[nH]cc(F)c(=O)[nH]1 , is normalized growth less than 1?
Completion: yes (1)

Prompt: Just wondering, is normalized growth of NNc1nncc2ccccc12 below 1?
Completion: yes (1)

Prompt: Hi there! Is normalized growth for CC1=NS(=O)(=O)c2cc(Cl)ccc2N1 below 1, do you know?
Completion: yes (1)

Prompt: Does C#C[C@]1(O)CCC2C3CCC4=CC(=O)CC[C@@H]4C3CC[C@@]21C (some centres not stated) have normalized growth strictly under 1?
Completion: no (0)
